Entry source: PubChem BioAssay AID489028

- assay system: Protein Mdm4 (Homo sapiens) + E3 ubiquitin-protein ligase Mdm2 (Homo sapiens) (UniProt O15151+Q00987)
- Sequence (O15151 whole entry, looked up): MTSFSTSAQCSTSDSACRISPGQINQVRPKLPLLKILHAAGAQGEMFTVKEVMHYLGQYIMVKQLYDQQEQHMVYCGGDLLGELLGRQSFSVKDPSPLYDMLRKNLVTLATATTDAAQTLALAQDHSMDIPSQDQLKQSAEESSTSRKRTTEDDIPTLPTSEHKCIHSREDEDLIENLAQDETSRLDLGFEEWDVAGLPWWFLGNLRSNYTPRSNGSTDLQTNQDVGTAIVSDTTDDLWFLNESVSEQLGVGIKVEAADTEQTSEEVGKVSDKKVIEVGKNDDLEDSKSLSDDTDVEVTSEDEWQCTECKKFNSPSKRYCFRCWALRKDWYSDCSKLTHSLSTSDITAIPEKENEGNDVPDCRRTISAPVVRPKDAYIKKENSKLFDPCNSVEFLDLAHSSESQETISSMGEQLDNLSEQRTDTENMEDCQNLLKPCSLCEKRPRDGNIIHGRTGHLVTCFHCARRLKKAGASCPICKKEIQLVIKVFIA
- Sequence (Q00987 whole entry, looked up): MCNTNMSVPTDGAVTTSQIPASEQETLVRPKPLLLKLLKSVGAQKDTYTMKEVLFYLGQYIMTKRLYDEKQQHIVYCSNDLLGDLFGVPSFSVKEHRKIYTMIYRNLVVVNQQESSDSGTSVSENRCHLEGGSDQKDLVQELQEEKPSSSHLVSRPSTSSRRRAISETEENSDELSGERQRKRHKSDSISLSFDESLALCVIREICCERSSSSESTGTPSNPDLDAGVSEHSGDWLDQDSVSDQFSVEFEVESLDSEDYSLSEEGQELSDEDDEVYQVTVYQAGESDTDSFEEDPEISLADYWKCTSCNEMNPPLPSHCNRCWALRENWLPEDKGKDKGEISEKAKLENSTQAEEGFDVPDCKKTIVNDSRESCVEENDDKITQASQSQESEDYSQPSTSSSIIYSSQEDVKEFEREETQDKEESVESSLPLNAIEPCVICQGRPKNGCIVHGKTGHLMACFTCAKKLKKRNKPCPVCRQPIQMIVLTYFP
- assay method text: Mdm2-MdmX complex disruptors, retested hits, confirmation, luminescence, single concentration (AID 489028)
- condition context: Mdm2-MdmX binding, luminescent assay; at 8 µM; stronger effect = higher value
In all, about 10,000 compounds went through this assay and about 5,600 (56%) were called active. So high a share suggests a set chosen from earlier hits. The list is a sample of the results.

{"compound": "CCOC(=O)c1cc(NC(=O)c2ccc(Cl)cc2)c(=O)oc1-c1ccccc1", "inhibition (%)": 35.2}
{"compound": "COc1ccc(CN2CN(C(C)C)CSC2=S)cc1", "inhibition (%)": -10.1}
{"compound": "COc1cc2[nH]c(=S)n(Cc3ccc(F)cc3)c(=O)c2cc1OC", "inhibition (%)": 15.8}
{"compound": "O=C(Nc1ccccc1Cl)/C(Cl)=C(\\Cl)S(=O)c1ccccc1 (centres undefined)", "inhibition (%)": 100}
